src = ChEMBL document CHEMBL2169862

ASSAYED_SYSTEM: Vitamin D3 receptor (Homo sapiens)
Sequence (P11473 whole entry): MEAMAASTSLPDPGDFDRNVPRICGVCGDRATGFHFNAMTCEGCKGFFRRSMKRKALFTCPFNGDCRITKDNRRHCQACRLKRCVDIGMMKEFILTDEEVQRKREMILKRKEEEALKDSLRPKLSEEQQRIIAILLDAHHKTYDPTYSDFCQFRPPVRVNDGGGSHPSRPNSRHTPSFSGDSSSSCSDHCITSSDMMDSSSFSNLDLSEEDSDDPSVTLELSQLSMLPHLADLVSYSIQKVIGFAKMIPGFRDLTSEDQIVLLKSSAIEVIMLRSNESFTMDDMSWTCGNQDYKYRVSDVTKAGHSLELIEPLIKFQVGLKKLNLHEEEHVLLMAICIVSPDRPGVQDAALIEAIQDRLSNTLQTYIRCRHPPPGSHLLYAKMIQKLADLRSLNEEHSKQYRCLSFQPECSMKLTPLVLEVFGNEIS
PROTOCOL_DESCRIPTION: Agonist activity at VDR in human MCF7 cells assessed as transcription of CYP24A1 gene after 24 hrs by luciferase reporter gene assay
Type: functional, cell-based
pEC50: −log10 of the molar value.
ENDPOINT_LABEL: pEC50

>>> quantitative_readout("C=C1/C(=C\\C=C2/CC[C@@H](CCCCCCC(C)(C)O)[C@]3(C)[C@@H]([C@H](C)CCO)CC[C@@H]23)C[C@@H](O)C[C@@H]1O")
8.04
>>> quantitative_readout("C=C1/C(=C\\C=C2/CC[C@@H](CCCCCCC(C)(C)O)[C@]3(C)[C@@H]([C@H](C)CO)CC[C@@H]23)C[C@@H](O)C[C@@H]1O")
8.09
>>> quantitative_readout("C=C1/C(=C\\C=C2/CC[C@@H](CCCCCCC(C)(C)O)[C@]3(C)[C@@H]([C@H](C)CCCO)CC[C@@H]23)C[C@@H](O)C[C@@H]1O")
8.24

---

System: SW480-ADH
PROTOCOL_DESCRIPTION: Induction of human SW480-ADH cell differentiation assessed as formation of compact epithelioid islands of highly adherent cells at 10 '-8 M after 48 hrs by phase-contrast microscopy
Format: functional, cell-based
Active and inactive are the calls of the source. No cut-off for these calls is given here.
Outcome codes: active, inactive

>>> cat("C=C1/C(=C\\C=C2/CC[C@@H](CCCCCCC(C)(C)O)[C@]3(C)[C@@H]([C@H](C)CCCO)CC[C@@H]23)C[C@@H](O)C[C@@H]1O")
"inactive"
>>> cat("C=C1/C(=C\\C=C2/CC[C@@H](CCCCCCC(C)(C)O)[C@]3(C)[C@@H]([C@H](C)CO)CC[C@@H]23)C[C@@H](O)C[C@@H]1O")
"inactive"
>>> cat("C=C1/C(=C\\C=C2/CCC[C@]3(C)[C@@H]([C@H](C)CCCC(C)(C)O)CC[C@@H]23)C[C@@H](O)C[C@@H]1O [CALCITRIOL]")
"active"
>>> cat("C=C1/C(=C\\C=C2/CC[C@@H](CCCCCCC(C)(C)O)[C@]3(C)[C@@H]([C@H](C)CCO)CC[C@@H]23)C[C@@H](O)C[C@@H]1O")
"inactive"
